Origin of values: ChEMBL document CHEMBL1145927

target: Prostaglandin G/H synthase 2 (Homo sapiens); assay: Compound was tested for the inhibition of human Prostaglandin G/H synthase 2 (COX-2) in human whole blood; format: tissue-based
Sequence (P35354 whole entry): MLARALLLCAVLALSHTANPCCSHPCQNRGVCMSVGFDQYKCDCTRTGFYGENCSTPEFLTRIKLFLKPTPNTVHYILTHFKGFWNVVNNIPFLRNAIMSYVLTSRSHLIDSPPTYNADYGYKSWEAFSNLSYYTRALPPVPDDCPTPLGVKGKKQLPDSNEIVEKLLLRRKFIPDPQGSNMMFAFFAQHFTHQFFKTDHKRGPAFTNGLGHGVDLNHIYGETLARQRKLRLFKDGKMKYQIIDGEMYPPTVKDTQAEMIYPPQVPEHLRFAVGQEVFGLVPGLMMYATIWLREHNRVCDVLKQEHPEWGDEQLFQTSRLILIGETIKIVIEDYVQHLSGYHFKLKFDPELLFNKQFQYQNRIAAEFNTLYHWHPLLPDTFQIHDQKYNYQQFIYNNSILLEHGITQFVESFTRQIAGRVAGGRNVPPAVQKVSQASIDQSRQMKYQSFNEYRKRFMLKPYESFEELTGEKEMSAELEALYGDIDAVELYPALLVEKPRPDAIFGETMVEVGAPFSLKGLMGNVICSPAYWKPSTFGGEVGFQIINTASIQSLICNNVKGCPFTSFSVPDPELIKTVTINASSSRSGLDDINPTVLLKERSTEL
assay.metric: IC50 (µM)
Form entry: value (µM) — number only.

Ask | Which IC50 value is on record for CS(=O)(=O)c1ccc(-c2cc3c(cc2Cc2ccccc2)OCO3)cc1 ?
Reply | 10

Ask | Which IC50 value is on record for CS(=O)(=O)c1ccc(-c2cc3c(cc2C(=O)c2cccc(F)c2)OCO3)cc1 ?
Reply | 1

---

For each record, write down the corresponding inhibition.
molecular target: Prostaglandin G/H synthase 1 (Homo sapiens, UniProt P23219); assay: In vitro average percent Inhibition of Prostaglandin G/H synthase 1 (COX-1) at a concentration of 100 uM determined in human whole blood by human whole blood (HWB) assay; format: tissue-based
Sequence (P23219 whole entry): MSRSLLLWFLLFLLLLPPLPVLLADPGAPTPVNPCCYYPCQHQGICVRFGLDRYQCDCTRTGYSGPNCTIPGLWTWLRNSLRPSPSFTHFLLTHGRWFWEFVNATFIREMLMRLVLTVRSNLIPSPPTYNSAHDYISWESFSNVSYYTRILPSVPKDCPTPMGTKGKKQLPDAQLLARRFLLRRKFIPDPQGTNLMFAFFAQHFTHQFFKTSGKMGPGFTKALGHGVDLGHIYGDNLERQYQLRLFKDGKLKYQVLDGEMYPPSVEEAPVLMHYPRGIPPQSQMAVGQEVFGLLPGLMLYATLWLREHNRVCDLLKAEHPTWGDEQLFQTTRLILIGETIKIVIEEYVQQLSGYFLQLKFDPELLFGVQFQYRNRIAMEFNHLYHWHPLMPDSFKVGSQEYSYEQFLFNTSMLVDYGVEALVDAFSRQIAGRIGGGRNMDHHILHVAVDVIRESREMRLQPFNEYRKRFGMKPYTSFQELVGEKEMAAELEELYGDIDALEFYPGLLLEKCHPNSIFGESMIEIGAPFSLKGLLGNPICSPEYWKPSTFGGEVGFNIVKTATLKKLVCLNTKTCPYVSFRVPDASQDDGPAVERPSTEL
Form entry: value (%) — number only.

Ask | What inhibition appears in the records for this compound with Prostaglandin G/H synthase 1 (Homo sapiens, UniProt P23219)? COc1cc(Cc2cc(F)cc(F)c2)c(-c2ccc(S(C)(=O)=O)cc2)cc1OC
Reply | 0

Ask | What inhibition appears in the records for this compound with Prostaglandin G/H synthase 1 (Homo sapiens, UniProt P23219)? NS(=O)(=O)c1ccc(-c2cc3c(cc2Cc2ccccc2)OCO3)cc1
Reply | 90

Ask | What inhibition appears in the records for this compound with Prostaglandin G/H synthase 1 (Homo sapiens, UniProt P23219)? CS(=O)(=O)c1ccc(-c2ccccc2C(=O)c2cccc(F)c2)cc1
Reply | 45

Ask | What inhibition appears in the records for this compound with Prostaglandin G/H synthase 1 (Homo sapiens, UniProt P23219)? CS(=O)(=O)c1ccc(-c2cc3c(cc2Cc2cc(F)cc(F)c2)OCCO3)cc1
Reply | 70

Ask | What inhibition appears in the records for this compound with Prostaglandin G/H synthase 1 (Homo sapiens, UniProt P23219)? CS(=O)(=O)c1ccc(-c2ccccc2Cc2cccc(F)c2)cc1
Reply | 35

---

biological target: Prostaglandin G/H synthase 1 (Homo sapiens); experiment: In vitro average percent inhibition of human prostaglandin G/H synthase 1 (COX-1) at a concentration of 100 uM
assay.metric: inhibition (%)
Form entry: value (%) — number only.

Ask | What inhibition appears in the records for this compound with Prostaglandin G/H synthase 1 (Homo sapiens)? CS(=O)(=O)c1ccc(-c2cc3c(cc2Cc2cccc(Cl)c2)OCO3)cc1
Reply | 65

Ask | What inhibition appears in the records for this compound with Prostaglandin G/H synthase 1 (Homo sapiens)? CS(=O)(=O)c1ccc(-c2cc3c(cc2C=C2CCCCCC2)OCO3)cc1
Reply | 35

Ask | What inhibition appears in the records for this compound with Prostaglandin G/H synthase 1 (Homo sapiens)? COc1cccc(Cc2cc3c(cc2-c2ccc(S(C)(=O)=O)cc2)OCO3)c1
Reply | 35

Ask | What inhibition appears in the records for this compound with Prostaglandin G/H synthase 1 (Homo sapiens)? CS(=O)(=O)c1ccc(-c2cc3c(cc2CN2CCCCC2=O)OCO3)cc1
Reply | 50

Ask | What inhibition appears in the records for this compound with Prostaglandin G/H synthase 1 (Homo sapiens)? CS(=O)(=O)c1ccc(-c2cc3c(cc2Cc2cccc(F)c2)OCO3)cc1
Reply | 25

Ask | What inhibition appears in the records for this compound with Prostaglandin G/H synthase 1 (Homo sapiens)? CS(=O)(=O)c1ccc(-c2cc3c(cc2C(=O)C2CCCCC2)OCO3)cc1
Reply | 55

Ask | What inhibition appears in the records for this compound with Prostaglandin G/H synthase 1 (Homo sapiens)? CS(=O)(=O)c1ccc(-c2cc3c(cc2C(=O)c2cccc(F)c2)OCO3)cc1
Reply | 50

Ask | What inhibition appears in the records for this compound with Prostaglandin G/H synthase 1 (Homo sapiens)? CS(=O)(=O)c1ccc(-c2cc3c(cc2C=C2CCCC2)OCO3)cc1
Reply | 70

Ask | What inhibition appears in the records for this compound with Prostaglandin G/H synthase 1 (Homo sapiens)? CS(=O)(=O)c1ccc(-c2cc3c(cc2C(=O)c2ccccc2F)OCO3)cc1
Reply | 70

Ask | What inhibition appears in the records for this compound with Prostaglandin G/H synthase 1 (Homo sapiens)? CS(=O)(=O)c1ccc(-c2cc3c(cc2C(=O)c2cccc(Cl)c2)OCO3)cc1
Reply | 90

Ask | What inhibition appears in the records for this compound with Prostaglandin G/H synthase 1 (Homo sapiens)? Cc1ccc(C(=O)c2cc3c(cc2-c2ccc(S(C)(=O)=O)cc2)OCO3)cc1
Reply | 60

Ask | What inhibition appears in the records for this compound with Prostaglandin G/H synthase 1 (Homo sapiens)? COc1cccc(C(=O)c2cc3c(cc2-c2ccc(S(C)(=O)=O)cc2)OCO3)c1
Reply | 95

Ask | What inhibition appears in the records for this compound with Prostaglandin G/H synthase 1 (Homo sapiens)? CS(=O)(=O)c1ccc(-c2cc3c(cc2Cc2ccccc2)OCO3)cc1
Reply | 65

Ask | What inhibition appears in the records for this compound with Prostaglandin G/H synthase 1 (Homo sapiens)? Cc1ccc(F)c(C(=O)c2cc3c(cc2-c2ccc(S(C)(=O)=O)cc2)OCO3)c1
Reply | 90

Ask | What inhibition appears in the records for this compound with Prostaglandin G/H synthase 1 (Homo sapiens)? CS(=O)(=O)c1ccc(-c2cc3c(cc2C(=O)c2cc(F)cc(F)c2)OCO3)cc1
Reply | 50

Ask | What inhibition appears in the records for this compound with Prostaglandin G/H synthase 1 (Homo sapiens)? CS(=O)(=O)c1ccc(-c2cc3c(cc2CC2CCCCCC2)OCO3)cc1
Reply | 40

Ask | What inhibition appears in the records for this compound with Prostaglandin G/H synthase 1 (Homo sapiens)? CS(=O)(=O)c1ccc(-c2cc3c(cc2C(=O)c2ccc(F)cc2)OCO3)cc1
Reply | 95

Ask | What inhibition appears in the records for this compound with Prostaglandin G/H synthase 1 (Homo sapiens)? CS(=O)(=O)c1ccc(-c2cc3c(cc2CCCc2ccccc2)OCO3)cc1
Reply | 65

Ask | What inhibition appears in the records for this compound with Prostaglandin G/H synthase 1 (Homo sapiens)? Cc1cccc(Cc2cc3c(cc2-c2ccc(S(C)(=O)=O)cc2)OCO3)c1
Reply | 10

Ask | What inhibition appears in the records for this compound with Prostaglandin G/H synthase 1 (Homo sapiens)? CS(=O)(=O)c1ccc(-c2cc3c(cc2C=C2CCCCC2)OCO3)cc1
Reply | 50

Ask | What inhibition appears in the records for this compound with Prostaglandin G/H synthase 1 (Homo sapiens)? CS(=O)(=O)c1ccc(-c2cc3c(cc2CC2CCCCC2)OCO3)cc1
Reply | 50

Ask | What inhibition appears in the records for this compound with Prostaglandin G/H synthase 1 (Homo sapiens)? CS(=O)(=O)c1ccc(-c2cc3c(cc2Cc2ccccc2F)OCO3)cc1
Reply | 75

Ask | What inhibition appears in the records for this compound with Prostaglandin G/H synthase 1 (Homo sapiens)? Cc1ccc(F)c(Cc2cc3c(cc2-c2ccc(S(C)(=O)=O)cc2)OCO3)c1
Reply | 40
